# Tested on: Staphylococcus aureus
# applied_conditions: Concentration 32 ug.mL-1;; ASSAY_TEST Inhibition of Bacterial Growth; detection method Absorption (OD600); MEDIA CAMHB; plate type 384well; NBS; CORNING #3640; time 18 hr
# Description: Antibacterial activity against Staphylococcus aureus MRSA ATCC 43300 (CO-ADD:GP_020); MIC in CAMBH media, using NBS plates, by OD(600)
Entries with a potency or affinity are not part of this list.
endpoint_label: Inhibition (%)
Just the number in %, nothing appended.

INSERT INTO results (compound, measured_value) VALUES
  ('COC(=O)c1ccc(NC(=O)CSc2nnc3c4cc(-c5ccc(OC)cc5)nn4ccn23)cc1', 8.99);

Requested read-out: Inhibition. Entry: CCOc1ccc(N(Cc2ccccc2)S(=O)(=O)c2ccc3nncn3c2)cc1 -0.89

Requested read-out: Inhibition. Entry: Cc1ccc(Cl)cc1NC(=O)CSc1nnc2c(=O)n(-c3ccccc3)ccn12 7.91

Requested read-out: Inhibition. Entry: CC(C)CCn1c(=O)c2ccc(C(=O)NC3CCCC3)cc2n2c(=O)n(CC#N)nc12 11.46

Requested read-out: Inhibition. Entry: COc1ccc(C(=O)CSc2nnc3c(=O)n(-c4ccc(F)cc4)ccn23)cc1OC 16.25

====

# System: Escherichia coli
# applied_conditions: Concentration 32 ug.mL-1;; ASSAY_TEST Inhibition of Bacterial Growth; detection method Absorption (OD600); MEDIA CAMHB; plate type 384well; NBS; CORNING #3640; time 18 hr
# Description: Antibacterial activity against Escherichia coli ATCC 25922 (CO-ADD:GN_001); MIC in CAMBH media using NBS plates, by OD(600)
Potency and affinity values are given separately.
endpoint_label: Inhibition (%)
Just the number in %, nothing appended.

Please review the following examples before continuing.
INSERT INTO measurements (compound, measured_value) VALUES
  ('Cc1ccc(-n2ccn3c(SC(C)C(=O)Nc4ccc5c(c4)OCCO5)nnc3c2=O)cc1C (centres undefined)', -2.85),
  ('COc1cccc(Sc2nc3ccccc3n3c(=O)n(CC(=O)N4CCCc5ccccc54)nc23)c1', -7.6),
  ('Cc1nnc2ccc(S(=O)(=O)N(Cc3ccccc3)c3ccc(Cl)cc3)cn12', -13.98),
  ('Cc1cc(C)cc(N(Cc2ccccc2)S(=O)(=O)c2cccn3cnnc23)c1', -13.66),
  ('COc1ccc(CNC(=O)CSc2nnc3c4cc(-c5ccc(C)cc5)nn4ccn23)cc1OC', -0.16),
  ('Cc1ccc(CNC(=O)Cn2nc3c(Sc4ccc(C)cc4C)nccn3c2=O)cc1', -11.72),
  ('CCOc1ccc(-n2ccn3c(SCC(=O)Nc4ccc5c(c4)OCCO5)nnc3c2=O)cc1', -9.56),
  ('COc1cccc(-n2ccn3c(SCC(=O)c4c(C)[nH]c5ccccc45)nnc3c2=O)c1', -7.21);

Requested read-out: Inhibition. Entry: O=C(Cn1nc2c(SCc3ccccc3)nccn2c1=O)NCc1ccccc1 -19.33

====

Listing of recorded Inhibition by entry.
# System: Staphylococcus aureus
# applied_conditions: Concentration 32 ug.mL-1;; ASSAY_TEST Inhibition of Bacterial Growth; detection method Absorption (OD600); MEDIA CAMHB; plate type 384well; NBS; CORNING #3640; time 18 hr
Results with a measured potency or affinity are listed apart.
Just the number in %, nothing appended.

Please review the following examples before continuing.
INSERT INTO assay_data (compound, endpoint_label, result_units, measured_value) VALUES
  ('CCOc1ccc(-n2ccn3c(SCC(N)=O)nnc3c2=O)cc1', 'Inhibition', '%', 8.32),
  ('Cc1ccccc1CSc1nnc2c(=O)n(-c3ccc(Br)cc3)ccn12', 'Inhibition', '%', 1.11),
  ('O=C(Cn1nc2ccc(SCc3ccc(Cl)cc3)nn2c1=O)Nc1ccc2c(c1)CCC2', 'Inhibition', '%', 2.54),
  ('Cc1ccc(N(Cc2cccc(C)c2)S(=O)(=O)c2cccn3c(C)nnc23)cc1', 'Inhibition', '%', -2.01),
  ('Cc1ccc(NC(=O)Cn2nc3ccc(SCc4ccc(Cl)cc4)nn3c2=O)cc1', 'Inhibition', '%', -0.24);

Field: next compound
Requested read-out: Inhibition. Entry: O=c1n(Cc2ccc3c(c2)OCO3)nc2c(S(=O)(=O)N3CCCCC3)cccn12 10.75

====

# Tested on: Escherichia coli
# applied_conditions: Concentration 32 ug.mL-1;; ASSAY_TEST Inhibition of Bacterial Growth; detection method Absorption (OD600); MEDIA CAMHB; plate type 384well; NBS; CORNING #3640; time 18 hr
Potency and affinity values are given separately.
endpoint_label: Inhibition (%)
Just the number in %, nothing appended.

Please review the following examples before continuing.
INSERT INTO measurements (smiles_string, system_tested, measured_value) VALUES
  ('COc1cc(OC)c(NC(=O)Cn2nc3c(Oc4ccc(C)cc4)nccn3c2=O)cc1Cl', 'Escherichia coli', -4.58),
  ('O=C(NCc1ccccc1)c1ccc2nn(CC(=O)N3CCN(c4ccccc4F)CC3)c(=O)n2c1', 'Escherichia coli', -3.36),
  ('COc1ccccc1-n1ccn2c(SCc3ccccc3C)nnc2c1=O', 'Escherichia coli', -2.58),
  ('CCOc1ccc(-n2ccn3c(SCC(=O)Nc4cc(F)ccc4F)nnc3c2=O)cc1', 'Escherichia coli', 1.2),
  ('COc1ccc(-c2cc3c4nn(CC(=O)Nc5c(C)cccc5C)c(=O)n4ccn3n2)cc1', 'Escherichia coli', -1.14),
  ('CC(=O)c1ccc(NC(=O)Cn2nc3ccc(-c4ccccc4)nn3c2=O)cc1', 'Escherichia coli', -5.17),
  ('Cc1oc(-c2cccc(Cl)c2)nc1CSc1nc2ccccc2n2c(C)nnc12', 'Escherichia coli', 1.96),
  ('CCc1ccc(N(Cc2cccc(F)c2)S(=O)(=O)c2cccn3c(C)nnc23)cc1', 'Escherichia coli', -2.48),
  ('O=c1n(Cc2ccc3c(c2)OCO3)nc2c(S(=O)(=O)N3CCCCC3)cccn12', 'Escherichia coli', 1.46),
  ('Cc1ccc(-c2cc3c4nnc(SCC(=O)Nc5cccc(Br)c5)n4ccn3n2)cc1', 'Escherichia coli', -4.56);

Field: next compound
Requested read-out: Inhibition. Entry: O=C(CSc1nc2ccccc2n2cnnc12)N1CCN(c2ccc(F)cc2)CC1 1.79

====

Listing of recorded Inhibition by entry.
# System: Escherichia coli
# applied_conditions: Concentration 32 ug.mL-1;; ASSAY_TEST Inhibition of Bacterial Growth; detection method Absorption (OD600); MEDIA CAMHB; plate type 384well; NBS; CORNING #3640; time 18 hr
Results with a measured potency or affinity are listed apart.
Just the number in %, nothing appended.

INSERT INTO assay_data (compound, measured_value) VALUES
  ('O=C(CCc1nnc2c(N3CCCCC3)nc3ccccc3n12)NCc1ccc(F)cc1', -4.75);

Requested read-out: Inhibition. Entry: O=S(=O)(c1cccn2cnnc12)N(Cc1cccc(Cl)c1)c1cc(F)cc(F)c1 -3.49

====

# System: Escherichia coli
# applied_conditions: Concentration 32 ug.mL-1;; ASSAY_TEST Inhibition of Bacterial Growth; detection method Absorption (OD600); MEDIA CAMHB; plate type 384well; NBS; CORNING #3640; time 18 hr
Measured potencies and affinities stand elsewhere.
Listing of recorded Inhibition by entry.
Just the number in %, nothing appended.

Please review the following examples before continuing.
INSERT INTO assay_data (smiles_string, measured_value) VALUES
  ('O=C(Cn1nc2c3cc(-c4ccc(F)cc4)nn3ccn2c1=O)N1CCCc2ccccc21', -5.07),
  ('Cc1ccc(-c2ccc3nnc(CCC(=O)NCc4cccc(Br)c4)n3n2)cc1', -0.13),
  ('CCCc1nnc2c(=O)n(CC(=O)Nc3ccc(NC(C)=O)cc3)c3ccccc3n12', -0.84);

Requested read-out: Inhibition. Entry: COc1cccc(NC(=O)Cn2nc3c(Oc4ccccc4)nccn3c2=O)c1 -5.32

Requested read-out: Inhibition. Entry: CCOc1ccc(C(=O)CSc2nnc3c(=O)n(-c4cccc(OC)c4)ccn23)cc1 -13.86

Requested read-out: Inhibition. Entry: CCc1nnc2c(S(=O)(=O)N(Cc3cc(F)cc(F)c3)c3cccc(F)c3)cccn12 -5.05

Requested read-out: Inhibition. Entry: O=c1n(Cc2nc(-c3ccc(F)cc3)no2)nc2ccc(-c3ccccc3)nn12 -3.67

Requested read-out: Inhibition. Entry: Cc1cc(C)c(NC(=O)CSc2nc3ccccc3n3c(C)nnc23)c(C)c1 -6.86

Requested read-out: Inhibition. Entry: Cc1cc(C)cc(NC(=O)Cn2nc3c4cc(-c5ccc(Cl)cc5)nn4ccn3c2=O)c1 6.23

Requested read-out: Inhibition. Entry: COc1ccc(CN(c2ccc(OC)cc2)S(=O)(=O)c2ccc3nnc(C)n3c2)cc1 -1.31

Requested read-out: Inhibition. Entry: Cc1ccccc1NC(=O)Cn1nc2c3cc(-c4ccc(Cl)cc4)nn3ccn2c1=O 4.06

====

# Tested on: Staphylococcus aureus
# applied_conditions: Concentration 32 ug.mL-1;; ASSAY_TEST Inhibition of Bacterial Growth; detection method Absorption (OD600); MEDIA CAMHB; plate type 384well; NBS; CORNING #3640; time 18 hr
Potency and affinity values are given separately.
endpoint_label: Inhibition (%)
Just the number in %, nothing appended.

Please review the following examples before continuing.
INSERT INTO assay_data (molecule, system_tested, measured_value) VALUES
  ('Cc1cc(C)c(C(=O)CSc2nnc3c(=O)n(-c4ccc(F)c(F)c4)ccn23)cc1C', 'Staphylococcus aureus', 17),
  ('COc1cccc(Oc2nccn3c(=O)n(CC(=O)Nc4ccc5c(c4)OCO5)nc23)c1', 'Staphylococcus aureus', 9.63),
  ('COc1ccc(NC(=O)Cn2nc3c4cc(-c5ccc(F)cc5)nn4ccn3c2=O)c(OC)c1', 'Staphylococcus aureus', 8.82),
  ('Cc1ccc(C)c(C(=O)CSc2nnc3c(=O)n(-c4ccc(F)c(F)c4)ccn23)c1', 'Staphylococcus aureus', 18.46),
  ('COc1cccc(CNC(=O)CSc2nnc3ccc(C(=O)Nc4cccc(F)c4)cn23)c1', 'Staphylococcus aureus', 9.49);

Field: next molecule
Requested read-out: Inhibition. Entry: CSc1cccc(NC(=O)Cn2nc3c(N4CCCC(C)C4)nccn3c2=O)c1 (stereo unspecified) -21.6

Source listed as ChEMBL document CHEMBL4513146.
